All figures here come from patent US7507727B2.

target: c-Myc template DNA (c-myc quadruplex); assay: Quadruplex binding / stop assay (Taq polymerase arrest, capillary electrophoresis); conditions: read-out: Stop Data c-Myc μM; concentration at which 50% of the DNA was arrested (arrested:full-length 1:1)
Measured Parameter: IC50 (µM)
Express your answer in µM, writing the number without its unit.

The cases that follow already have their IC50 on record.
Ask: What measured IC50 is associated with CN1CCCC1CCNc1c(F)cc2c(=O)c(C(=O)NCCCn3ccnc3)cn3c2c1Oc1cc2c(cc1-3)oc1ccccc12 (stereo not shown) [compound 159] on c-Myc template DNA (c-myc quadruplex)?
Reply: 1.75

Ask: Another compound to look at: CN(C)/C=N/CCCNC(=O)c1cn2c3c(c(N4CC[C@@H](NC(=O)OC(C)(C)C)C4)c(F)cc3c1=O)Oc1cc3ccccc3cc1-2 [compound 211]
Reply: 1.75

Ask: Another compound to look at: Nc1c(F)c(N2CCC(N)C2)c2c3c1c(=O)c(C(=O)NCCCN1CCOCC1)cn3-c1cc3ccccc3cc1O2 (stereo not shown) [compound 235]
Reply: 1.75

Next:
Ask: What measured IC50 is associated with CN1CCCC1CCNC(=O)c1cn2c3c(c(NCCN4CCCC4)c(F)cc3c1=O)Oc1cc3c(cc1-2)oc1ccccc13 (stereo not shown) [compound 306] on c-Myc template DNA (c-myc quadruplex)?
Reply: 1

Ask: Another compound to look at: CN(C)CCCCNC(=O)c1cn2c3c(c(N4CCC(NC(=O)OC(C)(C)C)C4)c(F)c(N)c3c1=O)Oc1cc3ccccc3cc1-2 (stereo not shown) [compound 228]
Reply: 1.75

Ask: Another compound to look at: CCOC(=O)N1CCC(Nc2c(F)cc3c(=O)c(C(=O)NCCC4CCCN4C)cn4c3c2Oc2cc3ccccc3cc2-4)CC1 (stereo not shown) [compound 256]
Reply: 1.75

Ask: Another compound to look at: CN1CCN(CCCNc2c(F)cc3c(=O)c(C(=O)NCCCN4CCOCC4)cn4c5cc6c(=O)c7ccccc7c(=O)c6cc5oc2c34)CC1 [compound 492]
Reply: 0.45

Ask: Another compound to look at: CN(C)CCCCNc1ccc2c(=O)c(C(=O)NCCC3CCCN3C)cn3c2c1Oc1cc2ccccc2cc1-3 (stereo not shown) [compound 275]
Reply: 1.75

Ask: Another compound to look at: CN1CCN(CCCNC(=O)c2cn3c4c(c(NCCN5CCCC5)c(F)cc4c2=O)Oc2cc4ccccc4cc2-3)CC1 [compound 71]
Reply: 2.5

Ask: Another compound to look at: COc1ccc2c(CCNc3c(F)cc4c(=O)c(C(=O)NCCC5CCCN5C)cn5c4c3Oc3cc4ccccc4cc3-5)c[nH]c2c1 (stereo not shown) [compound 288]
Reply: 1.75
